- tested.on: UniProt Q8C129
- experimental.protocol: IRAP activators, dose response, selectivity assay for ERAP1 modulator project, biochemical, Leu-AMC fluorescence, cherry-picked samples (AID 743339)
- condition.label: purified IRAP, Leu-AMC cleavage fluorescence, 1 h; at 11 µM (top of the series)
value.type: activation (%)
Your answer should be a plain number; it is taken to be in %.

The cases that follow already have their activation on record.
COc1cccc(S(=O)(=O)N(C)C[C@@H]2Oc3ncccc3C(=O)N([C@H](C)CO)C[C@@H]2C)c1 ... 79.6
O=C(CSc1cn[nH]n1)Nc1cccc(C(=O)O)c1 ... 17.4
CCCN(C)C[C@@H]1OCCCC[C@@H](C)Oc2ccc(NS(=O)(=O)c3ccc(F)cc3)cc2C(=O)N([C@H](C)CO)C[C@@H]1C ... -17.1
CCCNC(=O)C[C@H]1CC[C@@H]2[C@H](COC[C@H](O)CN2C(=O)Nc2cccc(Cl)c2)O1 ... 24.9
C[C@@H]1CCCCO[C@H](CN(C)Cc2ccccc2)[C@H](C)CN([C@H](C)CO)C(=O)c2cc(NS(=O)(=O)c3ccccc3)ccc2O1 ... -9.37

Give recorded activation with UniProt Q8C129 for the following compound: `C[C@@H]1CCCCO[C@@H](CN(C)C)[C@@H](C)CN([C@@H](C)CO)C(=O)c2cc(NS(=O)(=O)c3ccc(F)cc3)ccc2O1`
-0.129

Then what about the compound `O=C(O)c1cccc(NC(=O)c2ccccc2NC(=O)c2cccc([N+](=O)[O-])c2)c1` ?
8.03

Repeat with `COc1ccc(CN(C)C[C@@H]2OCCCC[C@H](C)Oc3ccc(NS(=O)(=O)c4cccs4)cc3C(=O)N([C@@H](C)CO)C[C@@H]2C)cc1`
10.9

----------
- tested.on: Leucyl-cystinyl aminopeptidase (Mus musculus)
- experimental.protocol: IRAP activators, dose response, selectivity assay for ERAP1 modulator project, biochemical, Leu-AMC fluorescence, cherry-picked samples (AID 743339)
- condition.label: purified IRAP, Leu-AMC cleavage fluorescence, 1 h
value.type: AC200

Illustrative cases are given below, each with its answer.
O=c1ccc2cc(O[C@@H]3O[C@H](CO)[C@@H](O)[C@H](O)[C@H]3O)c(O)cc2o1 ... 307 nM
Cc1cc(=O)oc2c(CN3CCCCC3)c(O)ccc12 ... 988 nM
COc1ccc(CNCc2c(O)c(Cl)cc3c(C)c(C)c(=O)oc23)c(OC)c1 ... 493 nM
O=c1ccc2cc(O)c(O)cc2o1 ... 2120 nM
Cc1c(O)ccc2cc(S(=O)(=O)c3ccccc3)c(=O)oc12 ... 439 nM

// below: AC200 requested for another compound
Identify the measured AC200 of `O=C(NCC1CC1)[C@H]1[C@H](CO)[C@H]2Cn3c(ccc(/C=C/c4ccccc4)c3=O)[C@@H]1N2C(=O)C1CC1` for Leucyl-cystinyl aminopeptidase (Mus musculus).
927 nM

----------
- tested.on: Leucyl-cystinyl aminopeptidase (Mus musculus) (UniProt Q8C129)
- Sequence (Q8C129 whole entry, looked up): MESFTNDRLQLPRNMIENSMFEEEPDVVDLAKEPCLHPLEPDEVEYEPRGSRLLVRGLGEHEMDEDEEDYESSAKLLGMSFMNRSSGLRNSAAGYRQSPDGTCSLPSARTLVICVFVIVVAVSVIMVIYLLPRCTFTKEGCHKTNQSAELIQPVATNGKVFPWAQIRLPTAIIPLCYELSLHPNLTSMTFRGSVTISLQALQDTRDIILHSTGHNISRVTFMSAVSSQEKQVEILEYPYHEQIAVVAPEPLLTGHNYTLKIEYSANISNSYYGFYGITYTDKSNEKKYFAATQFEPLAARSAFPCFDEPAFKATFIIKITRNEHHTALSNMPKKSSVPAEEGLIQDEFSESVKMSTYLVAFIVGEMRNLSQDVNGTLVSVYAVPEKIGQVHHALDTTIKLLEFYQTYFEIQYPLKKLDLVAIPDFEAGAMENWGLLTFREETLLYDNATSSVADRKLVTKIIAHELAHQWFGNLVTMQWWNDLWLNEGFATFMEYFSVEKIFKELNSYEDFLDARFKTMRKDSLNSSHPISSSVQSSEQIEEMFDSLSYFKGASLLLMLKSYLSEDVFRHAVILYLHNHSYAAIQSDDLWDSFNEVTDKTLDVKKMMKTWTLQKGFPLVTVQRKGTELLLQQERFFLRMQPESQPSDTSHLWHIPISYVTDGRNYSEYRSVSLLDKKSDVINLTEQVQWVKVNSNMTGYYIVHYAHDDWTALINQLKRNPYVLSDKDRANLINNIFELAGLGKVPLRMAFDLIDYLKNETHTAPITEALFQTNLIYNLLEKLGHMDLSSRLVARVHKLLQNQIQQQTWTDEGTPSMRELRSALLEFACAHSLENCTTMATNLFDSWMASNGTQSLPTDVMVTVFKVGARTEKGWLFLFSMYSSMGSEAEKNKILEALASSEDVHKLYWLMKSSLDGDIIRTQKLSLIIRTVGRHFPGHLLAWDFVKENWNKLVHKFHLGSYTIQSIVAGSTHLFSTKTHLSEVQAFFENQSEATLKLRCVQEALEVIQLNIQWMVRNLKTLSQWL
- experimental.protocol: IRAP activators, dose response, selectivity assay for ERAP1 modulator project, biochemical, Leu-AMC fluorescence, cherry-picked samples (AID 743339)
- condition.label: purified IRAP, Leu-AMC cleavage fluorescence, 1 h; at 5.6 µM (top of the series)
Active and inactive are the calls of the source.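 How the source made its calls: active means activation curve crossing 200% at or below the highest valid dose tested for that sample; inconclusive means flat curve with activation between 30 and 70%, or poor fit; inactive means the rest, including signal falling instead of rising.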
value.type: activation

The following compounds have reported results that may help.
COc1ccc(S(=O)(=O)N(C)C[C@@H]2Oc3ncccc3C(=O)N([C@H](C)CO)C[C@@H]2C)cc1 ... 9.5% (inactive)
Cc1ccc(-c2cc(C(=O)N3CCCC3)c3ccccc3n2)s1 ... 152% (inactive)
C[C@@H]1CCCCO[C@@H](CN(C)Cc2ccccc2)[C@@H](C)CN([C@H](C)CO)C(=O)c2cc(NS(=O)(=O)c3cccs3)ccc2O1 ... 16.2% (inactive)

Next compound, activation to be filled in.
Fill blank: measured activation of the compound `C[C@@H]1CCCCO[C@@H](CN(C)Cc2ccc3c(c2)OCO3)[C@@H](C)CN([C@@H](C)CO)C(=O)c2cc(NS(=O)(=O)c3ccccc3)ccc2O1` is ____.
7.88% (inactive)
